system: HTERT_HME1; test: area over the GR curve, 72 h; higher = more effect;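 note: Dye Drop or Deep Dye Drop imaging of viable cells in 384-well plates (Hoechst nuclei, LIVE/DEAD dye), nine half-log doses, GR normalized to DMSO controls and time-zero plates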
parameter: area over the GR curve (GR)
Please respond with the number in GR and leave the unit unwritten.

Using the record for CC(=O)Nc1cccc(-n2c(=O)n(C3CC3)c(=O)c3c(Nc4ccc(I)cc4F)n(C)c(=O)c(C)c32)c1 (max 1 µM) , report its area over the GR curve. 0.434

Look at this molecule and give its reported area over the GR curve. CCC(=O)Nc1ccc(C(=O)Nc2ccc(Nc3ncc4c(n3)N(C)c3ccc(C)cc3C(=O)N4C)cc2)cc1 0.44

Reported area over the GR curve for CN(C)C/C=C/C(=O)Nc1ccc(C(=O)Nc2cccc(Nc3cc(-c4c[nH]c5ccccc45)ncn3)c2)cc1 [THZ-P1-2] (max 10 µM) : what is it? 0.107

Looking for the measured area over the GR curve of O=C(c1cc(Cc2n[nH]c(=O)c3ccccc23)ccc1F)N1CCN(C(=O)C2CC2)CC1 [Olaparib/AZD2281] (max 10 µM) , can you help? 0.0258
